- ASSAY METHOD TEXT: qHTS Validation assay for Inhibitors of Plasmodium falciparum Dd2 growth in vitro; further: nearly all actives have a fitted effect of over 70% in size
- EXPERIMENTAL CONTEXT: P. falciparum Dd2 in RBCs, SYBR Green growth, 72 h; series mostly up to 28.7 µM
Among all 4,100 compounds or so, about 1,600 (39%) were called active. Another 25% or so got no clear call; they are omitted. The call rests on the fitted dose curve; in most records, active means well fitted inhibition curve with a large enough effect; inconclusive means small, poorly fitted or top-dose-only effect; inactive means no such curve, though single readings can be large or run the other way. The list shows a part of the results.
Would you mind answering with one of these outcomes? TRUE = active, FALSE = inactive

- MOLECULE: "O=C(NCC1CC1)c1cccc(OC2CN(CC3CC=CCC3)C2)c1 (stereo not given)"
  ANSWER LABEL: "FALSE"
- MOLECULE: "Cc1ccc(Cl)cc1NC(=O)c1cc2ccccc2cc1O"
  ANSWER LABEL: "TRUE"
- MOLECULE: "Cc1ccc(-n2nc3n(c2=O)CCN(C(=O)c2cccc(Cl)c2)C3)cc1"
  ANSWER LABEL: "FALSE"
- MOLECULE: "CCOc1ccc(NC(=O)c2cc3ccccc3cc2O)cc1"
  ANSWER LABEL: "TRUE"
- MOLECULE: "Cc1cc(C)n2nc(C(=O)N3CCN4C(=O)CN(C)C(=O)C4C3)cc2n1 (stereo not given)"
  ANSWER LABEL: "FALSE"
- MOLECULE: "CCOc1ccc(NC(=O)c2oc3ccccc3c2NC(=O)c2cc(C)cc(C)c2)cc1"
  ANSWER LABEL: "FALSE"

Task item: Dear colleague, could you share the recorded outcome for Cc1ccc(Cl)cc1NC(=O)c1nnn(Cc2ccccc2)c1N when you have a moment?
Reply: FALSE

Task item: Dear colleague, could you share the recorded outcome for O=C(Nc1ccc(Cl)cc1)N1CCn2c(nn(-c3ccc([N+](=O)[O-])cc3)c2=O)C1 when you have a moment?
Reply: FALSE

Task item: Dear colleague, could you share the recorded outcome for COc1ccc(OC)c(-n2nnc(-c3nc(-c4cc(OC)c(OC)c(OC)c4)no3)c2C)c1 when you have a moment?
Reply: FALSE

Task item: Dear colleague, could you share the recorded outcome for COc1ccc(-n2nc3n(c2=O)CCN(C(=O)c2ccc(Cl)cc2)C3)cc1 when you have a moment?
Reply: FALSE

* * *

- ASSAY METHOD TEXT: qHTS Validation assay for Inhibitors of Plasmodium falciparum Dd2 growth in vitro; further: nearly all actives have a fitted effect of over 70% in size
- EXPERIMENTAL CONTEXT: P. falciparum Dd2 in RBCs, SYBR Green growth, 72 h; series mostly up to 28.7 µM
- Text: Malaria, a parasitic disease spread to humans through the bite of a Plasmodium infected Anopheles mosquito, continues to be a global health burden affecting millions of people, with an estimated 228 million cases and 405,000 deaths in 2018. Concerns about safety and limitations of current antimalarial treatments strongly emphasize the need to develop new therapeutic options. […]
Screen size: about 4,100 compounds; about 1,600 (39%) were called active. Roughly 25% stayed inconclusive and do not appear here. Calls follow the shape of the dose curve; as a rule, active = well fitted inhibition curve with a large enough effect; inconclusive = small, poorly fitted or top-dose-only effect; inactive = no such curve, though single readings can be large or run the other way. The list shows a part of the results.
Would you mind answering with one of these outcomes? 1.0 = active, 0.0 = inactive

Completed entries (count: 10):
- COMPOUND: "CCOc1ccc(NS(=O)(=O)c2csc(C(N)=O)c2)cc1"
  ANSWER LABEL: 1.0
- COMPOUND: "COCC(=O)NC[C@H]1CCN(Cc2ccc(Cl)cc2)C[C@H]1N(C)C"
  ANSWER LABEL: 0.0
- COMPOUND: "CCOc1ccc2[nH]c3c(NCCN(C)C)ncnc3c2c1"
  ANSWER LABEL: 1.0
- COMPOUND: "COc1cc(NS(=O)(=O)c2cnc(N)nc2)cc(OC)c1"
  ANSWER LABEL: 0.0
- COMPOUND: "Cn1nc(-c2nncn2CC2CC2)c2c1CCN(C(=O)c1nn(C)c3ccccc13)C2"
  ANSWER LABEL: 0.0
- COMPOUND: "CCOc1ccc(S(=O)(=O)Nc2ccc3oc4c(c3c2)CC(C)CC4)cc1 (stereo unspecified)"
  ANSWER LABEL: 0.0
- COMPOUND: "CCNC(=O)NC(=O)C(C)Sc1nc2ccccc2c(=O)n1-c1cccnc1 (stereo unspecified)"
  ANSWER LABEL: 0.0
- COMPOUND: "CCn1cnnc1-c1nn(C)c2c1CN(C(=O)CC(C)C)CC2"
  ANSWER LABEL: 0.0
- COMPOUND: "CC(Sc1nc2ccccc2c(=O)n1C)C(=O)N(C)C1CCCCC1 (stereo unspecified)"
  ANSWER LABEL: 1.0
- COMPOUND: "CN(C)c1ncc([N+](=O)[O-])cc1C(F)(F)F"
  ANSWER LABEL: 0.0

Consider now this further compound.
Task item: Dear colleague, could you share the recorded outcome for Cc1ccc(-c2nc(C)c(C(=O)O)s2)cc1 when you have a moment?
Reply: 0.0

* * *

- ASSAY METHOD TEXT: qHTS Validation assay for Inhibitors of Plasmodium falciparum Dd2 growth in vitro; further: nearly all actives have a fitted effect of over 70% in size
- EXPERIMENTAL CONTEXT: P. falciparum Dd2 in RBCs, SYBR Green growth, 72 h; series mostly up to 28.7 µM
Among all 4,100 compounds or so, about 1,600 (39%) were called active. Inconclusive results (about 25%) are left out. The call rests on the fitted dose curve; in most records, active means well fitted inhibition curve with a large enough effect; inconclusive means small, poorly fitted or top-dose-only effect; inactive means no such curve, though single readings can be large or run the other way. Some of the results follow.
Would you mind answering with one of these outcomes? t for active, f for inactive

Completed entries (count: 4):
- COMPOUND: "COc1cc(CN2Cc3ccccc3C2)ccc1OCC(O)CN1CCOCC1 (stereo not given)"
  ANSWER LABEL: "f"
- COMPOUND: "Cn1c(-n2cccc2)c(-c2c(-c3ccc(F)cc3)[nH]c3c2c(=O)n(C)c(=O)n3C)c(=O)n(C)c1=O"
  ANSWER LABEL: "f"
- COMPOUND: "Cc1cccc(CNCc2ccccc2OCC(O)CN2CCSCC2)c1 (stereo not given)"
  ANSWER LABEL: "t"
- COMPOUND: "Cc1cccc(N2CCN(c3cccc(C)c3)C2c2cccnc2)c1"
  ANSWER LABEL: "t"

Consider now this further compound.
Task item: Dear colleague, could you share the recorded outcome for O=c1c2ccccc2nc(/C=C/c2cc(Br)ccc2O)n1CCCO when you have a moment?
Reply: t

* * *

- ASSAY METHOD TEXT: qHTS Validation assay for Inhibitors of Plasmodium falciparum Dd2 growth in vitro; further: nearly all actives have a fitted effect of over 70% in size
- EXPERIMENTAL CONTEXT: P. falciparum Dd2 in RBCs, SYBR Green growth, 72 h; series mostly up to 28.7 µM
In all, about 4,100 compounds went through this assay and about 1,600 (39%) were called active. Inconclusive results (about 25%) are left out. Calls come from the whole dose curve; as a rule, active = well fitted inhibition curve with a large enough effect; inconclusive = small, poorly fitted or top-dose-only effect; inactive = no such curve, though single readings can be large or run the other way. The list shows a part of the results.
Would you mind answering with one of these outcomes? active, inactive

Completed entries (count: 4):
- COMPOUND: "CC(=O)N1CCc2cc(S(=O)(=O)CCC(=O)N3CCC(CCOc4ccccc4)C3)ccc21 (centres undefined)"
  ANSWER LABEL: "inactive"
- COMPOUND: "O=C(NC(=S)Nc1ccc2c(c1)OCCO2)c1ccccc1F"
  ANSWER LABEL: "inactive"
- COMPOUND: "COC(=O)[C@H]1[C@H]2C[C@@H]3c4[nH]c5cc(OC)ccc5c4CCN3C[C@H]2C[C@@H](OC(=O)/C=C/c2cc(OC)c(OC)c(OC)c2)[C@@H]1OC"
  ANSWER LABEL: "active"
- COMPOUND: "O=C(O)C[C@@H]1CCN(C(=O)C2CCCCC2)C[C@@H]1CCN1CCOCC1"
  ANSWER LABEL: "inactive"

Task item: Dear colleague, could you share the recorded outcome for Cc1ccc(NC(=O)CCS(=O)(=O)c2ccc(Br)cc2)c(C)c1 when you have a moment?
Reply: inactive

Task item: Dear colleague, could you share the recorded outcome for O=C1Cc2cc(S(=O)(=O)N3CCN(c4cccc(Cl)c4)CC3)ccc2N1 when you have a moment?
Reply: inactive

Task item: Dear colleague, could you share the recorded outcome for O=C(CCS(=O)(=O)c1cc(Br)cc2c1N(C(=O)C1CC1)CC2)Nc1ccc(Br)cc1F when you have a moment?
Reply: active

Task item: Dear colleague, could you share the recorded outcome for CC(=O)Nc1ccc(NS(=O)(=O)c2cc(Br)cc3c2N(C(=O)C2CC2)CC3)cc1 when you have a moment?
Reply: inactive

Task item: Dear colleague, could you share the recorded outcome for COc1ccc(NC(=O)c2ccc3c(c2)n(C)c(=O)c2ccnn23)cc1OC when you have a moment?
Reply: inactive

* * *

- ASSAY METHOD TEXT: qHTS Validation assay for Inhibitors of Plasmodium falciparum Dd2 growth in vitro; further: nearly all actives have a fitted effect of over 70% in size; further: potency means the concentration at half of the fitted maximal effect
- EXPERIMENTAL CONTEXT: P. falciparum Dd2 in RBCs, SYBR Green growth, 72 h; series mostly up to 28.7 µM
Screen size: about 4,100 compounds; about 1,600 (39%) were called active. Not shown: some 25% with an inconclusive outcome. Some of the results follow.
PROPERTY: Potency

Please review the following examples before continuing.
- COMPOUND: "Cc1cc(C)c2oc(=O)cc(CN3CCCCC3)c2c1"
  PROPERTY: "Potency"
  RESULT: "13300 nM (active)"
- COMPOUND: "COc1ccc(C(=O)N2CCC(n3cc(-c4nc(-c5ccccc5)no4)nn3)C2)cc1 (stereo not given)"
  PROPERTY: "Potency"
  RESULT: "inactive"
- COMPOUND: "CC(C)c1ccc(-c2noc(SCC(=O)N(C)c3ccc(F)cc3)n2)cc1"
  PROPERTY: "Potency"
  RESULT: "944 nM (active)"
- COMPOUND: "CC(=O)Nc1cc[n+](C(C)C(=O)c2ccc(Br)cc2)cc1 (stereo not given)"
  PROPERTY: "Potency"
  RESULT: "inactive"
- COMPOUND: "COc1ccc(N2CCN(C(=O)CSc3nc(-c4ccc(C(C)C)cc4)no3)CC2)cc1"
  PROPERTY: "Potency"
  RESULT: "531 nM (active)"
- COMPOUND: "Cc1cc(F)ccc1NC(=O)Cn1c(=O)ccc2cc(S(=O)(=O)N3CCC(C)CC3)ccc21"
  PROPERTY: "Potency"
  RESULT: "inactive"
- COMPOUND: "CCOC(=O)c1c(NC(=O)COc2ccc(F)cc2)sc2c1CCC(C)C2 (stereo not given)"
  PROPERTY: "Potency"
  RESULT: "inactive"
- COMPOUND: "COc1ccccc1CC(=O)N1CCC2(CC1)N=C(c1cccc(Br)c1)NO2"
  PROPERTY: "Potency"
  RESULT: "inactive"
- COMPOUND: "CC(=O)Nc1cccc(C(=O)NC2CCCN(c3cc(-c4ccc(Cl)cc4)[nH]n3)C2)c1 (stereo not given)"
  PROPERTY: "Potency"
  RESULT: "inactive"

Alright, here's another compound for you.
// field: Potency; key: COc1ccc(-c2noc(-c3cccn3CC(=O)N(C)c3ccc(F)cc3)n2)cc1F ; value = inactive
